- target.or.test.system: wildtype LRRK2 (Homo sapiens)
- Construct: expressed in transfected cells; host or cells: HEK293 (ATCC CRL-1573), transient transfection, mammalian expression vector with ubiquitin promoter
- Sequence (Q5S007 whole entry): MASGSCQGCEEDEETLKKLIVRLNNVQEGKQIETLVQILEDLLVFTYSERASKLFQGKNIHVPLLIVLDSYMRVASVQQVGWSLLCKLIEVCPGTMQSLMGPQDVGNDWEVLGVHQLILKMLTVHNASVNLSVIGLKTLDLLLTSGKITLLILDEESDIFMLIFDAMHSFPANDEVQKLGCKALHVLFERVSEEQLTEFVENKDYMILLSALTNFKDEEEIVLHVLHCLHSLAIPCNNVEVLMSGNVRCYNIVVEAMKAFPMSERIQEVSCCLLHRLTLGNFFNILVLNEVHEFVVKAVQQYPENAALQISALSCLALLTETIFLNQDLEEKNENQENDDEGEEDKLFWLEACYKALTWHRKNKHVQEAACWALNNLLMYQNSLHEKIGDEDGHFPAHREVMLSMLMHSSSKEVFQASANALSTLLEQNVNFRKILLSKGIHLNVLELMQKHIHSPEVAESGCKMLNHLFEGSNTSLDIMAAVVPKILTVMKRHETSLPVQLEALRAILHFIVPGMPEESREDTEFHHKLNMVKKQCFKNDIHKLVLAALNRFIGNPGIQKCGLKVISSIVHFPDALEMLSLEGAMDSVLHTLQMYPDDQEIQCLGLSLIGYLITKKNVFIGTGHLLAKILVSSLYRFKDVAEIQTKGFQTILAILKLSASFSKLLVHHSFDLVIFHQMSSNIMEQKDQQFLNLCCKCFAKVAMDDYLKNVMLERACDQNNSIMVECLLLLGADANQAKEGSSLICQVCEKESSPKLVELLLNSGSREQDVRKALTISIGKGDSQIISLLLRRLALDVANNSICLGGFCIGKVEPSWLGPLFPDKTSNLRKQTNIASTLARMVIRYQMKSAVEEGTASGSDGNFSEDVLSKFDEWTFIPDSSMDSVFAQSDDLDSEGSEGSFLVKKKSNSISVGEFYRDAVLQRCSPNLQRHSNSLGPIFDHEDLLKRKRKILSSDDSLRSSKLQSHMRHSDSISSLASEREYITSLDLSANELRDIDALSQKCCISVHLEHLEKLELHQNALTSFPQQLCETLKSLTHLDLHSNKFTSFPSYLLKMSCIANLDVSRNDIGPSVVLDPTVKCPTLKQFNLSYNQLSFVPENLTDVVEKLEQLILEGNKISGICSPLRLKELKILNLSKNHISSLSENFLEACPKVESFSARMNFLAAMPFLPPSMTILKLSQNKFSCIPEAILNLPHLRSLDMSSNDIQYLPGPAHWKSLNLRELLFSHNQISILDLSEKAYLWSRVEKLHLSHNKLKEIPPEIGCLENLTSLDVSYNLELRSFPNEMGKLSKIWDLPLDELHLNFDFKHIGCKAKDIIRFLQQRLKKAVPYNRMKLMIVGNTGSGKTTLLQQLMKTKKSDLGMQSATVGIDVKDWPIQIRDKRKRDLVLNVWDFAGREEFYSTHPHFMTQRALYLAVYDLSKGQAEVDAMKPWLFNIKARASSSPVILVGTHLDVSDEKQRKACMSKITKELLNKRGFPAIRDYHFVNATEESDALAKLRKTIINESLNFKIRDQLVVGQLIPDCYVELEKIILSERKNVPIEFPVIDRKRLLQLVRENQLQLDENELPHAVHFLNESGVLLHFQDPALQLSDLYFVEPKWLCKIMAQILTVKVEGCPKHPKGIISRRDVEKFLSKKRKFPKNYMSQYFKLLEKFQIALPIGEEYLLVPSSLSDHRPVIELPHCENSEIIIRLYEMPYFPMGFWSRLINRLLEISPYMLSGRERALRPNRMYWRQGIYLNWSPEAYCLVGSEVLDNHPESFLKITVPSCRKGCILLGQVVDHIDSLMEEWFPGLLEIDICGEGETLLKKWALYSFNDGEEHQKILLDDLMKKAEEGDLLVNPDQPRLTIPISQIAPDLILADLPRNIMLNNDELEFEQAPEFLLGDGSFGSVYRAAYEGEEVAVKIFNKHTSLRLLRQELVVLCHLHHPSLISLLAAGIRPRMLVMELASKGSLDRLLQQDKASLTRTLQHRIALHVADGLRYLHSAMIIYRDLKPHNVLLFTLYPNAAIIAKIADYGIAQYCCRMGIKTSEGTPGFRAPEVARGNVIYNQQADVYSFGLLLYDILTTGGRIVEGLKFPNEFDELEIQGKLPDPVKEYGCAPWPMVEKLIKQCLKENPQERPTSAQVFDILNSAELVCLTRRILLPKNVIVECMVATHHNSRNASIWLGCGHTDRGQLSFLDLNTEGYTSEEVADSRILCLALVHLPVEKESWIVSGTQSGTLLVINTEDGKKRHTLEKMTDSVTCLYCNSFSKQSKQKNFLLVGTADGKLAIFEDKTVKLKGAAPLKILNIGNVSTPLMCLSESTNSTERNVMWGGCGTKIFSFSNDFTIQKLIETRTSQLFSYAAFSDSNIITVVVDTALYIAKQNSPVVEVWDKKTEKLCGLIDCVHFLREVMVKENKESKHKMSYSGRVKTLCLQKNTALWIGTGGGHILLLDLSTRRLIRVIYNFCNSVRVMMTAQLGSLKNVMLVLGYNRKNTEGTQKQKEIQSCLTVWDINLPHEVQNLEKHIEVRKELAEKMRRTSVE
- procedure.summary: LRRK2 degradation assay, HiBit-tagged wildtype LRRK2 expressed from plasmid in HEK293 cells (Nano-Glo Dual-Luciferase)
- Format: cell-based
- test.conditions: HiBit-tagged wildtype LRRK2, HEK293 cells, 24 hours; read-out: **WT Dmax (%)
Measured Dmax of individual entries

Worked cases, Dmax given:
compound	Dmax
CC1(Oc2ccc3[nH]nc(-c4cc(N5CCO[C@H](CCN6CCN(CC7CCN(c8ccc9c(c8)C(=O)N(C8CCC(=O)NC8=O)C9=O)CC7)CC6)C5)ncn4)c3c2)CC1 (stereo partly shown)	50 to 70%
C[C@H]1CN(c2cc(-c3n[nH]c4ccc(OC5(C)CC5)cc34)ncn2)CCN1CC1CCN(CCC2CCN(c3ccc4c(c3)C(=O)N(C3CCC(=O)NC3=O)C4=O)CC2)CC1 (stereo partly shown)	< 50%
CC1(Oc2ccc3[nH]nc(-c4cc(N5CCO[C@H](CN6CCN(CC7CCN(c8ccc9c(c8)C(=O)N(C8CCC(=O)NC8=O)C9=O)CC7)CC6)C5)ncn4)c3c2)CC1 (stereo partly shown)	< 50%
CC1(Oc2ccc3[nH]nc(-c4cc(N5CCO[C@@H](CCN6CCN(CC7CCN(c8ccc9c(c8)C(=O)N(C8CCC(=O)NC8=O)C9=O)CC7)CC6)C5)ncn4)c3c2)CC1 (single isomer, unassigned)	50 to 70%
CC1(Oc2ccc3[nH]nc(-c4ccnc(N5CC6(CCN6CC6CCN(CC7CCN(c8ccc9c(c8)C(=O)N(C8CCC(=O)NC8=O)C9=O)CC7)CC6)C5)c4)c3c2)CC1 (stereo not shown)	< 50%
C[C@H]1CN(c2cc(-c3[nH]nc4ccc(OC5(C)CC5)cc34)ncn2)CCN1Cc1cn(CC2CCN(c3ccc4c(c3)C(=O)N(C3CCC(=O)NC3=O)C4=O)CC2)nn1 (stereo partly shown)	< 50%

Consider the additional compound presented here.
Name the recorded Dmax of the compound listed here: CC1(Oc2ccc3[nH]nc(-c4cc(N5CCN(C[C@@H]6CN(CCC7CCN(c8ccc9c(c8)C(=O)N(C8CCC(=O)NC8=O)C9=O)CC7)CCO6)CC5)ncn4)c3c2)CC1 (stereo partly shown)
≥ 70%

* * *

- target.or.test.system: LRRK2 (endogenous, HiBit tagged) (Homo sapiens, UniProt Q5S007)
- Construct: endogenous in cells; host or cells: HEK293 cells with HiBit knock-in at the endogenous LRRK2 locus, stably expressing firefly luciferase
- Sequence (Q5S007 whole entry): as above
- procedure.summary: Endogenous LRRK2 degradation assay, endogenous gene C-terminally HiBit-tagged in HEK293 cells (Nano-Glo Dual Luciferase)
- Type: cell-based
- test.conditions: endogenous HiBit-tagged LRRK2 in HEK293 cells, 24 hours treatment; read-out: **Endogenous WT Dmax (%)
Measured Dmax of individual entries

compound	Dmax
COc1c(N2CCC(O[C@H]3C[C@H](CN4CCN(c5cc(-c6[nH]nc7ccc(OC8(C)CC8)cc67)ncn5)CC4)C3)CC2)ccc2c1CN(C1CCC(=O)NC1=O)C2=O (stereo partly shown) [Compound 293]	50 to 70%

Name the recorded Dmax of the compound listed here: C[C@H]1CN(CC2CCN(c3ccc4c(c3F)CN(C3CCC(=O)NC3=O)C4=O)CC2)CCN1CC1CCN(c2cc(-c3n[nH]c4cnc(OC5(C)CC5)cc34)ncn2)CC1 (stereo partly shown) [Compound 266]
≥ 70%

Name the recorded Dmax of the compound listed here: CC1(Oc2ccc3n[nH]c(-c4cc(N5CCC(CN6CC(F)(CC7CCN(c8ccc9c(c8F)CN(C8CCC(=O)NC8=O)C9=O)CC7)C6)CC5)ncn4)c3c2)CC1 (stereo not shown) [Compound 337]
≥ 70%

Name the recorded Dmax of the compound listed here: CC1(Oc2ccc3[nH]nc(-c4cc(N5CCC(CN6CCN(C[C@H]7CCN(c8ccc9c(c8F)CN(C8CCC(=O)NC8=O)C9=O)C7)CC6)CC5)ncn4)c3c2)CC1 (stereo partly shown) [Compound 330]
50 to 70%

* * *

Measured Dmax of individual entries
- target.or.test.system: G2019S LRRK2 (Homo sapiens, UniProt Q5S007, G2019S)
- Construct: expressed in transfected cells; host or cells: HEK293 (ATCC CRL-1573), transient transfection, mammalian expression vector with ubiquitin promoter
- Sequence (Q5S007 whole entry G2019S): as the sequence (Q5S007 whole entry) above, with G2019S counted along it
- procedure.summary: LRRK2 degradation assay, HiBit-tagged G2019S LRRK2 expressed from plasmid in HEK293 cells (Nano-Glo Dual-Luciferase)
- Format: cell-based
- test.conditions: HiBit-tagged G2019S LRRK2 in HEK293 cells, 24 hours

Name the recorded Dmax of the compound listed here: CC1(Oc2ccc3[nH]nc(-c4ccnc(N5CC(CN6CCN(CC7CCN(c8ccc9c(c8)C(=O)N(C8CCC(=O)NC8=O)C9=O)CC7)CC6)C5)c4)c3c2)CC1 (stereo not shown)
50 to 70%

Name the recorded Dmax of the compound listed here: CC1(Oc2ccc3[nH]nc(-c4cc(N5CCN(C[C@@H]6CCN(CC7CCN(c8ccc9c(c8)C(=O)N(C8CCC(=O)NC8=O)C9=O)CC7)C(=O)C6)CC5)ncn4)c3c2)CC1 (single isomer, unassigned)
50 to 70%

Name the recorded Dmax of the compound listed here: C[C@H]1CN(c2cc(-c3n[nH]c4ccc(OC5(C)CC5)cc34)ncn2)CCN1CC1CCN(CCCNc2cccc3c2CN(C2CCC(=O)NC2=O)C3=O)CC1 (stereo partly shown)
< 50%

Name the recorded Dmax of the compound listed here: CC1(Oc2ccc3n[nH]c(-c4cc(N5CC(OC6CCN(CC7CCN(c8ccc9c(c8)C(=O)N(C8CCC(=O)NC8=O)C9=O)CC7)CC6)C5)ncn4)c3c2)CC1 (stereo not shown)
50 to 70%

* * *

- target.or.test.system: LRRK2 (endogenous, HiBit tagged) (Homo sapiens, UniProt Q5S007)
- Construct: endogenous in cells; host or cells: HEK293 cells with HiBit knock-in at the endogenous LRRK2 locus, stably expressing firefly luciferase
- procedure.summary: Endogenous LRRK2 degradation assay, endogenous gene C-terminally HiBit-tagged in HEK293 cells (Nano-Glo Dual Luciferase)
- Assay type: cell-based
- test.conditions: endogenous HiBit-tagged LRRK2 in HEK293 cells, 24 hours treatment; read-out: **Endogenous WT Dmax (%)
Measured Dmax of individual entries

Name the recorded Dmax of the molecule listed here: CC1(Oc2ccc3n[nH]c(-c4cc(N5CCC(O[C@H]6C[C@H](N7CC[C@@H](c8ccc9c(c8F)CN(C8CCC(=O)NC8=O)C9=O)[C@@H](F)C7)C6)CC5)ncn4)c3c2)CC1 (stereo partly shown) [Compound 297]
50 to 70%

Name the recorded Dmax of the molecule listed here: CC1(Oc2cc3c(-c4cc(N5CCN(C[C@@H]6CCN(CC7CCN(c8ccc9c(c8F)CN(C8CCC(=O)NC8=O)C9=O)CC7)C[C@@H]6F)CC5)ncn4)n[nH]c3cc2F)CC1 (stereo partly shown) [Compound 299]
50 to 70%

Name the recorded Dmax of the molecule listed here: COc1c(N2CCC(CN3[C@H](C)CN(CC4CCN(c5cc(-c6n[nH]c7ccc(OC8(C)CC8)cc67)ncn5)CC4)C[C@@H]3C)CC2)ccc2c1CN(C1CCC(=O)NC1=O)C2=O (stereo partly shown) [Compound 288]
≥ 70%

Name the recorded Dmax of the molecule listed here: COc1c(N2CCC(N3CC(OC4CCN(c5cc(-c6[nH]nc7ccc(OC8(C)CC8)cc67)ncn5)CC4)C3)CC2)ccc2c1CN(C1CCC(=O)NC1=O)C2=O (stereo not shown) [Compound 356]
50 to 70%

Name the recorded Dmax of the molecule listed here: CC1(Oc2ccc3[nH]nc(-c4cc(N5CCC(O[C@H]6CCN(CC7CCN(c8ccc9c(c8F)CN(C8CCC(=O)NC8=O)C9=O)CC7)C(C)(C)C6)CC5)ncn4)c3c2)CC1 (stereo partly shown) [Compound 308]
50 to 70%

Name the recorded Dmax of the molecule listed here: C[C@H]1CN(c2cc(-c3n[nH]c4ccc(OC5(C)CC5)cc34)ncn2)CCN1C[C@H]1CC[C@H](OC2CCN(c3ccc4c(c3F)CN(C3CCC(=O)NC3=O)C4=O)CC2)CC1 (stereo partly shown) [Compound 348]
50 to 70%

Name the recorded Dmax of the molecule listed here: COc1c(N2CCC(CN3CCN(CC4CCN(c5cc(-c6n[nH]c7cnc(OC8(C)CC8)cc67)ncn5)CC4)[C@H](C)C3)CC2)ccc2c1CN(C1CCC(=O)NC1=O)C2=O (stereo partly shown) [Compound 257]
50 to 70%

Name the recorded Dmax of the molecule listed here: CC1(Oc2ccc3[nH]nc(-c4cc(N5CC[C@@H](CN6CCN(CC7CCN(c8ccc9c(c8F)CN(C8CCC(=O)NC8=O)C9=O)CC7)CC6)C5)ncn4)c3c2)CC1 (stereo partly shown) [Compound 327]
50 to 70%

Name the recorded Dmax of the molecule listed here: COc1c(N2CCC(CN3CCN(CC4CCN(c5cc(-c6n[nH]c7ccc(OC8(C)CC8)cc67)ncn5)CC4)C[C@H]3C)CC2)ccc2c1CN(C1CCC(=O)NC1=O)C2=O (stereo partly shown) [Compound 285]
≥ 70%

Name the recorded Dmax of the molecule listed here: C[C@H]1CN(CC2CCN(c3cc(-c4n[nH]c5cnc(OC6(C)CC6)cc45)ncn3)CC2)CCN1CC1CCN(c2ccc3c(c2F)CN(C2CCC(=O)NC2=O)C3=O)CC1 (stereo partly shown) [Compound 276]
50 to 70%
